The values you see were collected from patent US6451568B1.

- target.or.system: hCEPT1p (Homo sapiens)
- Construct: All of the hCEPT1p detected in S. cerevisiae was full length; made in house; host or cells: S. cerevisiae HJ091 (cpt1::LEU2 ept1-), plasmid pAH9, microsomal membranes
- procedure.details: Choline-/ethanolaminephosphotransferase enzyme assay, microsomal membranes of S. cerevisiae HJ091 expressing hCEPT1
- Format: biochemical
- reported.conditions: phosphobase donor CDP-ethanolamine; diradylglycerol as acceptor substrate; hCEPT1p in S. cerevisiae HJ091 microsomes
metric: Enzyme activity, CDP-ethanolamine (nmol/min/mg)
Answer format: numeric, nmol/min/mg implied, no suffix.

Problem: What value of measured Enzyme activity, CDP-ethanolamine is listed for CCCCCCCCCC(=O)OCC(CO)OC(=O)CCCCCCCCC (centres unmarked) ?
Result: 3.7

Problem: What value of measured Enzyme activity, CDP-ethanolamine is listed for CCCCCCCCCCCCCCCC(=O)OC[C@H](CO)OC(=O)CCCCCCCCCCCCCCC ?
Result: 3.5

Problem: What value of measured Enzyme activity, CDP-ethanolamine is listed for CCCCCCCCCCCC(=O)OCC(CO)OC(=O)CCCCCCCCCCC (centres unmarked) ?
Result: 2.7

Problem: What value of measured Enzyme activity, CDP-ethanolamine is listed for CCCCCCCCCCCCCC(=O)OC[C@H](CO)OC(=O)CCCCCCCCCCCCC ?
Result: 3.7

Problem: What value of measured Enzyme activity, CDP-ethanolamine is listed for CCCCCCCC(=O)OC[C@H](CO)OC(=O)CCCCCCC ?
Result: 3.1

----------
- target.or.system: hCEPT1p (Homo sapiens)
- Construct: All of the hCEPT1p detected in S. cerevisiae was full length; made in house; host or cells: S. cerevisiae HJ091 (cpt1::LEU2 ept1-), plasmid pAH9, microsomal membranes
- procedure.details: Choline-/ethanolaminephosphotransferase enzyme assay, microsomal membranes of S. cerevisiae HJ091 expressing hCEPT1
- Format: biochemical
- reported.conditions: phosphobase donor CDP-choline; diradylglycerol as acceptor substrate; hCEPT1p in S. cerevisiae HJ091 microsomes
# if measured Enzyme activity, CDP-choline < 30 nmol/min/mg: t  # else: f

Problem: Regarding CCCCCCCC(=O)OC[C@H](CO)OC(=O)CCCCCCC , kindly confirm whether its Enzyme activity, CDP-choline is beneath 30 nmol/min/mg.
Result: f

Problem: Regarding CCCCCCCCCCCCCCCC(=O)OC[C@H](CO)OC(=O)CCCCCCCCCCCCCCC , kindly confirm whether its Enzyme activity, CDP-choline is beneath 30 nmol/min/mg.
Result: t

Problem: Regarding CCCCCCCCCC(=O)OCC(CO)OC(=O)CCCCCCCCC (stereo not drawn) , kindly confirm whether its Enzyme activity, CDP-choline is beneath 30 nmol/min/mg.
Result: f

Problem: Regarding CCCCCCCCCCCCCC(=O)OC[C@H](CO)OC(=O)CCCCCCCCCCCCC , kindly confirm whether its Enzyme activity, CDP-choline is beneath 30 nmol/min/mg.
Result: t

Problem: Regarding CCCCCCCCCCCC(=O)OCC(CO)OC(=O)CCCCCCCCCCC (stereo not drawn) , kindly confirm whether its Enzyme activity, CDP-choline is beneath 30 nmol/min/mg.
Result: t

Problem: Regarding CCCCCCCCCCCCCCCCOCC(CO)OC(C)=O (stereo not drawn) , kindly confirm whether its Enzyme activity, CDP-choline is beneath 30 nmol/min/mg.
Result: f
